FYI, the data here is from patent US20230183352A1.

target: T1, Claudin 18.2 (CLDN18.2), expressed on CHOS-CLDN 18.2 / HEK293-CLDN 18.2 / HCC827-CLDN 18.2 cells (human, UniProt P56856-2 1-261); experiment: FACS, MFI on CHOS-CLDN18.2 over MFI on CHOS-CLDN18.1, 10 µg/ml
T1 construct: whole, on cells; The species is not repeated for the CHOS-CLDN 18.2 cells; also called claudin-18A2
Cut-off 500 on CLDN18.2/CLDN18.1 (MFI ratio), inclusive. At or above means yes (1); below means no (0).

Consider the following illustrative entries.
[[record]]
binder = "QP14361435 (antibody, human IgG1, kappa, V domains shown, Humanized from QP190191) VH: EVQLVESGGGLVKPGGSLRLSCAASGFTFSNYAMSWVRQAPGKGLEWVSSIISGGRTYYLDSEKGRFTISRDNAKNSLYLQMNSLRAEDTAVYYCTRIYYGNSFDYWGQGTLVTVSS VL: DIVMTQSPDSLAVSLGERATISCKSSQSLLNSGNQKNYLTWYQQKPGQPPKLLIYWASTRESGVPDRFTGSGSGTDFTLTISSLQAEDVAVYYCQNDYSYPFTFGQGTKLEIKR"
answer_label = "yes (1)"

[[record]]
binder = "QP14631461 (antibody, human IgG1, kappa, V domains shown, also called QP14611463) VH: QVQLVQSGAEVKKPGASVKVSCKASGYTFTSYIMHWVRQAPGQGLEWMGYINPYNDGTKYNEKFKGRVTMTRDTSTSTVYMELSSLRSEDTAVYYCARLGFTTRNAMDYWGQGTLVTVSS VL: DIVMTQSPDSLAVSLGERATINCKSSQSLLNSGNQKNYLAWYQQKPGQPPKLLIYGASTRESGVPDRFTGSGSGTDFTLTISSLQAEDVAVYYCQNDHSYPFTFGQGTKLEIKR"
answer_label = "yes (1)"


Kindly determine if CLDN18.2/CLDN18.1 (MFI ratio) recorded for QP14561454 (antibody, human IgG1, kappa, V domains shown, Humanized from QP201202) VH: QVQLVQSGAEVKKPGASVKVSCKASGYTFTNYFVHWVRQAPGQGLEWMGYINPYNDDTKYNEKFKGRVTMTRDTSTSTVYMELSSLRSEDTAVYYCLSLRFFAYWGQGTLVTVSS VL: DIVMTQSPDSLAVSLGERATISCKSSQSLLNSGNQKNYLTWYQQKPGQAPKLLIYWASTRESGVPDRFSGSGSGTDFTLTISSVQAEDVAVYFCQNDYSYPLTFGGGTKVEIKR is above or exactly 500.
no (0)

Kindly determine if CLDN18.2/CLDN18.1 (MFI ratio) recorded for QP201202 (antibody, human IgG1, V domains shown, Chimeric; also called 44C6) VH: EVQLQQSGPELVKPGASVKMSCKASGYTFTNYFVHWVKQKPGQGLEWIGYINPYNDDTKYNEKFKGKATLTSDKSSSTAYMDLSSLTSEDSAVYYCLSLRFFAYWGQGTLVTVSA VL: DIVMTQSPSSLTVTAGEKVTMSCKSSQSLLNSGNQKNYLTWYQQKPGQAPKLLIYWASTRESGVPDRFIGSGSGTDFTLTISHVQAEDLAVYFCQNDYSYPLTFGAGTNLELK is above or exactly 500.
no (0)

Kindly determine if CLDN18.2/CLDN18.1 (MFI ratio) recorded for QP14641460 (antibody, human IgG1, kappa, V domains shown, Humanized from QP207208) VH: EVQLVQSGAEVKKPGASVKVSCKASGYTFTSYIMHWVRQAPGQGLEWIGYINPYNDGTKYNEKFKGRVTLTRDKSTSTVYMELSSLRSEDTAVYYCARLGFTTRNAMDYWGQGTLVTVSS VL: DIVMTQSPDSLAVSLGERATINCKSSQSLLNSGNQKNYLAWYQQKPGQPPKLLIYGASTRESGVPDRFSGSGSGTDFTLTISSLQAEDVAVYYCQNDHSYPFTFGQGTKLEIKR is above or exactly 500.
yes (1)
